system: Escherichia coli TOP10; test: shrunken log2 fold change of peptide-encoding DNA abundance (4.5 h post-induction vs induction); higher = less antimicrobial activity (less host growth inhibition); settings: time post-induction: 4.5 h; library: site-saturation at positions 5, 18, 19, 20
Measured attribute: shrunken log2 fold change

Illustrative cases are given below, each with its answer.
1. RRIRVRPPRLPRPRPRPHTDPRP -0.141
2. RRIRERPPRLPRPRPRPADLPRP -0.175
3. RRIRRRPPRLPRPRPRPGPTPRP 0.678

// input: 5 sequences below; output: shrunken log2 fold change for each
1. RRIRERPPRLPRPRPRPKMHPRP
2. RRIRCRPPRLPRPRPRPQRCPRP
3. RRIRFRPPRLPRPRPRPEEWPRP
4. RRIRGRPPRLPRPRPRPHILPRP
5. RRIRMRPPRLPRPRPRPDHSPRP

Response:
-0.134
-0.0802
-0.0208
-0.198
0.318

----------
Give shrunken log2 fold change for every item shown.
system: Escherichia coli TOP10; test: shrunken log2 fold change of peptide-encoding DNA abundance (4.5 h post-induction vs induction); higher = less antimicrobial activity (less host growth inhibition); conditions: time post-induction: 4.5 h; library: site-saturation at positions 5, 18, 19, 20;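 note: peptides expressed intracellularly from a pBAD plasmid library in pooled LB shake-flask culture, induced with 0.3% L-arabinose, DNA abundance read by NGS, three biological replicates, DESeq2 with apeglm shrinkage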
Answers are plain numbers.

Some solved cases for reference:
1) RRIRVRPPRLPRPRPRPPGIPRP 0.154
2) RRIRERPPRLPRPRPRPLTDPRP -0.394
3) RRIRRRPPRLPRPRPRPDGLPRP 0.771
4) RRIRERPPRLPRPRPRPPDMPRP -0.332

For each entry beneath this line, provide reported shrunken log2 fold change.
1. RRIRVRPPRLPRPRPRPRTEPRP
2. RRIRTRPPRLPRPRPRPEELPRP
3. RRIRQRPPRLPRPRPRPAWPPRP
4. RRIRERPPRLPRPRPRPGYYPRP
5. RRIRHRPPRLPRPRPRPLNNPRP

Response:
0.165
0.0343
0.303
-0.0487
-0.684

List reported shrunken log2 fold change for each of these sequences:
1. RRIRHRPPRLPRPRPRPRWRPRP
2. RRIRIRPPRLPRPRPRPMLFPRP
3. RRIRCRPPRLPRPRPRPFNSPRP
4. RRIRGRPPRLPRPRPRPSGFPRP
5. RRIRERPPRLPRPRPRPMIYPRP
6. RRIRYRPPRLPRPRPRPAHKPRP
7. RRIRFRPPRLPRPRPRPSCDPRP
8. RRIRMRPPRLPRPRPRPHYKPRP

Response:
1. 0.355
2. -0.328
3. 0.101
4. 0.547
5. -0.12
6. 0.00824
7. -0.314
8. -0.539

Give one value of shrunken log2 fold change per listed sequence.
1. RRIRTRPPRLPRPRPRPQIFPRP
2. RRIRERPPRLPRPRPRPNRAPRP
3. RRIRGRPPRLPRPRPRPCGHPRP
4. RRIRVRPPRLPRPRPRPVESPRP
5. RRIRSRPPRLPRPRPRPQLAPRP
6. RRIRSRPPRLPRPRPRPKAWPRP
7. RRIRTRPPRLPRPRPRPDPRPRP

Response:
[-0.716, 0.0169, 0.666, -0.0208, 0.0789, 0.148, 0.0663]

Please state, for each entry, its recorded shrunken log2 fold change.
1. RRIRRRPPRLPRPRPRPDSYPRP
2. RRIRRRPPRLPRPRPRPYFHPRP
3. RRIRYRPPRLPRPRPRPLIDPRP
4. RRIRNRPPRLPRPRPRPINQPRP
5. RRIRGRPPRLPRPRPRPGQGPRP
6. RRIRMRPPRLPRPRPRPTAQPRP
7. RRIRVRPPRLPRPRPRPHTSPRP
8. RRIRGRPPRLPRPRPRPWANPRP

Response:
1. -0.117
2. -0.387
3. -0.00288
4. -0.14
5. 0.0965
6. 0.819
7. -0.643
8. 0.0528
